Experiment: in vitro
Details: human, Caco-2, Recovery rate A-B, Sample-02
recovery values by entry
# output: bare number, implied unit %

// solved cases for recovery follow
compound: Cc1cc(C(=O)O)cc(C2CC(O)(c3cnc(OCc4c(-c5c(Cl)cccc5Cl)noc4C4CC4)cn3)C2)c1 (stereo not shown)
test.readout: recovery
assay.value: 98.5

compound: CC(C)c1onc(-c2c(Cl)cccc2Cl)c1COc1cnc(C2(O)CC(c3cccc(C(=O)O)c3)C2)cn1 (stereo not shown)
test.readout: recovery
assay.value: 67.3

compound: O=C(O)c1cccc(N2CC(O)(c3cnc(OCc4c(-c5c(Cl)cccc5Cl)noc4C4CC4)cn3)C2)c1
test.readout: recovery
assay.value: 76.8

Then there is this compound:
Query: // Input: COCCc1ccc(OCC(O)CNC(C)C)cc1 (stereo not shown) [Metoprolol, reference compound] . Output its recovery only.
Result: 94.3
